- subject.of.test: T1, orthogonal hCD122 receptor (hoRb), hCD122 with H133D and Y134F (human, UniProt P14784 27-550)
- T1 sequence: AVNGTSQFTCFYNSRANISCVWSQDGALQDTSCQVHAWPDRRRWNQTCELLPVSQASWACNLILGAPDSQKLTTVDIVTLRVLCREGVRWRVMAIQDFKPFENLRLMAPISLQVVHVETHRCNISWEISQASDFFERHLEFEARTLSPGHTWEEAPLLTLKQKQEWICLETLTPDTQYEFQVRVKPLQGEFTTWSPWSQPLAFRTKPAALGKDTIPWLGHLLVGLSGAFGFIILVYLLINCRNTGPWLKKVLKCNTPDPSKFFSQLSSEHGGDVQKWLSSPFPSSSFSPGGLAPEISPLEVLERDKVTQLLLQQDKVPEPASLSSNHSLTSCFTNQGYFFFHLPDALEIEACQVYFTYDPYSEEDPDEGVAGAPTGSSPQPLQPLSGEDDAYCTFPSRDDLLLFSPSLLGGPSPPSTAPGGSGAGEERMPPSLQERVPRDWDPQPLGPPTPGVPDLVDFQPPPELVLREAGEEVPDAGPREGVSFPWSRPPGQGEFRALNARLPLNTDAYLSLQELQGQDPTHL
- protocol.summary: cell-based or functional assay
The following binders are listed with their measured 3F8 Ortho Proliferation Signal 1:50 values.
recorded.metric: 3F8 Ortho Proliferation Signal 1:50

binder: M104A, SQVLKA (ligand) APTSSSTKKTQLQLSQLLVLLKAILNGINNYKNPKLTRMLTFKFYMPKKATELKHLQCLEEELKPLEEVLNLAQSKNFHLRPRDLISNINVIVLELKGSETTFACEYADETATIVEFLNRWITFCQSIISTLT
experimental.value: 27100 cts/min
//
binder: SQVLAA (ligand) APTSSSTKKTQLQLSQLLVLLAAILNGINNYKNPKLTRMLTFKFYMPKKATELKHLQCLEEELKPLEEVLNLAQSKNFHLRPRDLISNINVIVLELKGSETTFMCEYADETATIVEFLNRWITFCQSIISTLT
experimental.value: 2940 cts/min
//
binder: T51I, SQVLKA (ligand) APTSSSTKKTQLQLSQLLVLLKAILNGINNYKNPKLTRMLTFKFYMPKKAIELKHLQCLEEELKPLEEVLNLAQSKNFHLRPRDLISNINVIVLELKGSETTFMCEYADETATIVEFLNRWITFCQSIISTLT
experimental.value: 11600 cts/min
//
binder: R38G, SQVLKA (ligand) APTSSSTKKTQLQLSQLLVLLKAILNGINNYKNPKLTGMLTFKFYMPKKATELKHLQCLEEELKPLEEVLNLAQSKNFHLRPRDLISNINVIVLELKGSETTFMCEYADETATIVEFLNRWITFCQSIISTLT
experimental.value: 14200 cts/min
